Kindly supply the reported cAMP EC50 values for the records listed here.
Biological target: T1, rat GLP-1 receptor (rat, UniProt P32301 22-463)
T1 sequence (looked up): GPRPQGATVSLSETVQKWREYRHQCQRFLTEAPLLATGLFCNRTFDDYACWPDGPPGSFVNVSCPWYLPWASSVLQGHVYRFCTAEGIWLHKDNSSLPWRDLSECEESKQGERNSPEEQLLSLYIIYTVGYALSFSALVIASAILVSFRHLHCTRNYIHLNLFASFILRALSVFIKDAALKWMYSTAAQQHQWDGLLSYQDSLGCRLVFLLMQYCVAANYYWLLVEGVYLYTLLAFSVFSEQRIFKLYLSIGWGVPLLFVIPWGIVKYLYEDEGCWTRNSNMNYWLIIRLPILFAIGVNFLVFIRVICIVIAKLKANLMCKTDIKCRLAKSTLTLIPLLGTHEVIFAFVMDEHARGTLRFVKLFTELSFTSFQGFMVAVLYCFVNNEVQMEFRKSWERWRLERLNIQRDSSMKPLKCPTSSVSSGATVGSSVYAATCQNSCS
Experiment: cell-based or functional assay
One number for each entry, in nM.

# count of solved cases: 5
IP274 (Fc fusion) YSEGTFTSDYSKLLEKEAVRLFIEWLLKGPGGGGGSGGGGSGGGGSGGGGSATHTCPPC :: 0.057
IP268 (Fc fusion) YSEGTFTSDYSKLLEEEAVRLFIEWLVKGPGGGGGSGGGGSGGGGSGGGGSATHTCPPC :: 0.026
IP212 (Fc fusion) YSEGTFTSDYSKLLEEEAVREFIAWLVKGPAAAGGSGSTASSGSGSATGGGGAATHTCPPCPAPEF :: 0.034
IP327 (Fc fusion) YSEGTFTSDYSKLLEEEAVRLFIEWLLAGGGGGGGSGGGGSGGGGSGGGGSGGGGSGGGGSA :: 0.032
IP324 (Fc fusion) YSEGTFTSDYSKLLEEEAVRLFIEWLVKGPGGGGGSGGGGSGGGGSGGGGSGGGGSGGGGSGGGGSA :: 0.04

Give cAMP EC50 for each listed item.
1. IP363 (Fc fusion) YSEGTFTSDYRMLKEEEAVRLFIEWLLAGGGGGGSGGGGSGGGGSGGGGSATHTCPPC
2. IP280 (Fc fusion) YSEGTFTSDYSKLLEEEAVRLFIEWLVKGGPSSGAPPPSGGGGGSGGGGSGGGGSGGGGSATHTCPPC
3. IP249 (Fc fusion) YSEGTFTSDYSKLLEEEAVRLFIEWLLAQKAAAGGSGSTASSGSGSATGGGGAATHTCPPCPAPEF
4. IP362 (Fc fusion) YSEGTFTSDYMMLKEEEAVRLFIEWLLAGGGGGGSGGGGSGGGGSGGGGSATHTCPPC
5. IP262 (Fc fusion) YSEGTFTSDYSKLLEEEAVRLFIEWLLKGPGGGGGSGGGGSGGGGSGGGGSATHTCPPCPAPEF

[1.4, 0.027, 0.15, 1.1, 0.036]
